Attribution: the kinase profiling compilation of Christmann-Franck et al. (2016)

- study_system: UniProt Q8N4C8
- Sequence (Q8N4C8 whole entry, looked up): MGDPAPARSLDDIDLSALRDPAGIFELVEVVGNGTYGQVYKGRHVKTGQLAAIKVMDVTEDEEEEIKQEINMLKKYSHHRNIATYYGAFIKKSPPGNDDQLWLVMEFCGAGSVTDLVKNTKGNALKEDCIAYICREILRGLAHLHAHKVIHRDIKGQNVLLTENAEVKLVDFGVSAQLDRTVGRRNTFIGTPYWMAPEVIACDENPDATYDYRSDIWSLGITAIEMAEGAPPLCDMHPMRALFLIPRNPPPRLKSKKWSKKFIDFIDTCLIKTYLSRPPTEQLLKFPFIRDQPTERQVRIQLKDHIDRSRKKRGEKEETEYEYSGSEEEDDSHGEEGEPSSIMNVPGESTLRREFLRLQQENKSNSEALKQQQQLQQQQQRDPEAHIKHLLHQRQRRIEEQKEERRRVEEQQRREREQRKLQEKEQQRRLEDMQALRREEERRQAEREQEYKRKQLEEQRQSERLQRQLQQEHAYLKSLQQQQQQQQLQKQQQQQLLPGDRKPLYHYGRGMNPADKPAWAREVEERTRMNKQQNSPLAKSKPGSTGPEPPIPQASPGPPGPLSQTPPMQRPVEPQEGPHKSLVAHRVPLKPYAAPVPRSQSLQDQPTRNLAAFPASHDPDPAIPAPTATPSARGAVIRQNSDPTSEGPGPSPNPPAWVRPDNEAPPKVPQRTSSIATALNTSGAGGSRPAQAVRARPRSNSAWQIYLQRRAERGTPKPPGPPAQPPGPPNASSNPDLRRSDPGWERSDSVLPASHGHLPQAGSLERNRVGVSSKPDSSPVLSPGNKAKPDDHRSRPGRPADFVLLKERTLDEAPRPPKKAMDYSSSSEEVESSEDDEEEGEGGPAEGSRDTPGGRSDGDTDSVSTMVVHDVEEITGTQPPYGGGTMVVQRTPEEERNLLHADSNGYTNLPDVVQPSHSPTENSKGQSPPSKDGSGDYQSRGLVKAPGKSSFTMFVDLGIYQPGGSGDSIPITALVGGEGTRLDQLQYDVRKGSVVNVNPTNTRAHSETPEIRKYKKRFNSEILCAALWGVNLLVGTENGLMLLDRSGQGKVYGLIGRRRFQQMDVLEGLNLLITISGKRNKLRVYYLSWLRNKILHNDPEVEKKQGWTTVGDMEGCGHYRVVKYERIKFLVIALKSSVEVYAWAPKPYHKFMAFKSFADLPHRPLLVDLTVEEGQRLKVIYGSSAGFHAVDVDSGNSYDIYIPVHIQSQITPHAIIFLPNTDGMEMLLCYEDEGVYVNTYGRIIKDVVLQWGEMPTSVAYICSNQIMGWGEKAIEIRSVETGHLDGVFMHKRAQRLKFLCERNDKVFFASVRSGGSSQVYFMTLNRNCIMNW
- assay_overview: KINOMEscan competition binding
- applied_conditions: compound 10.0 µM
endpoint: kinase still bound, per cent of control (%)
Please state the figure in %; there is no need to write the unit.

Please review the entries below; each comes with its answer.
molecule: Cc1cn(-c2cc(C(=O)Nc3ccc(C)c(NC(=O)c4ccno4)c3)cc(C(F)(F)F)c2)cn1
kinase still bound, per cent of control / %: 100
--
molecule: O=c1[nH]c2ccccc2n1C1CCN(Cc2ccc(-c3nc4cc5[nH]cnc5cc4nc3-c3ccccc3)cc2)CC1
kinase still bound, per cent of control / %: 88
--
molecule: COc1cc2c(Nc3ccc(NC(=O)c4ccccc4)cc3)ncnc2cc1OCCCN1CCOCC1
kinase still bound, per cent of control / %: 33
--
molecule: CCCS(=O)(=O)Nc1ccc(F)c(C(=O)c2c[nH]c3ncc(Cl)cc23)c1F
kinase still bound, per cent of control / %: 28
--
molecule: CCN(CCO)CCCOc1ccc2c(Nc3cc(CC(=O)Nc4cccc(F)c4)[nH]n3)ncnc2c1
kinase still bound, per cent of control / %: 25
--
molecule: CCOc1cc(N2CCC(O)CC2)ccc1Nc1ncc2c(n1)N(C)c1ccccc1C(=O)N2C
kinase still bound, per cent of control / %: 100

Request: Returns the measured kinase still bound, per cent of control for the input molecule. Input: `C=CC(=O)Nc1ccc(C(=O)c2sc(Nc3ccc(N4CCN(C)CC4)cc3OC)nc2N)cc1`
Result: 3.5

Request: Returns the measured kinase still bound, per cent of control for the input molecule. Input: CC1=C(C(=O)Nc2cc3cn[nH]c3cc2F)C(c2ccc(C(F)(F)F)cc2)CC(=O)N1 (centres undefined)
Result: 71

Request: Returns the measured kinase still bound, per cent of control for the input molecule. Input: `COc1cc2ncnc(Nc3cccc(Cl)c3)c2cc1OC`
Result: 37
